test system: U2OS; experiment: Incucyte cell viability with U2OS; format: toxicity, cell-based; details: human, 12 h, 10 µM, compound concentration 10 uM, replicate number 1, timepoint 12 hours; also: filed as whole numbers so only -1 and 0 and 1 occur
ASSAY_METRIC: Growth Rate
Give bare numbers.

For each of the molecules below, note its Growth Rate.
1. C[C@]12CCC(=O)C=C1CC[C@@H]1[C@@H]2[C@@H](O)C[C@]2(C=O)[C@@H](C(=O)CO)CC[C@@H]12 [ALDOSTERONE]
2. CN1C2CCC1CC(OC(c1ccc(F)cc1)c1ccc(F)cc1)C2.Cl (stereo not given)
3. CCc1cccc(CC)c1NC(=O)c1nn(C)c2c1CCc1cnc(Nc3ccc(C(=O)NC4CCN(C)CC4)cc3OC(F)(F)F)nc1-2
4. CCOc1cc2ncc(C#N)c(Nc3ccc(OCc4ccccn4)c(Cl)c3)c2cc1NC(=O)/C=C/CN(C)C [NERATINIB]
5. Cc1nc(NC(=O)N2CCC[C@H]2C(N)=O)sc1-c1ccnc(C(C)(C)C(F)(F)F)c1 [ALPELISIB]
6. O=C(Nc1ccc(-n2nc(-c3cccnc3)cc2C(F)(F)F)cn1)c1ccc(-c2ccccc2)c(F)c1 [BI 2049]
7. CN1CCC(=C2c3ccccc3CC(=O)c3sccc32)CC1.O=C(O)/C=C/C(=O)O [KETOTIFEN FUMARATE]
8. O=C(Nc1ccc(Cl)cc1)Nc1cccc(-c2cccc(N3CCCC3)n2)c1

1
1
0
0
1
0
1
0

Need Growth Rate for each of these molecules.
1. CC(C)OC(=O)C1=CN(C(=O)c2ccc(F)c(F)c2)CC(C)(C)c2c1[nH]c1ccccc21 [TUROFEXORATE ISOPROPYL]
2. O=C(c1ccc(C(=O)N2CCC(N3CCCC3)CC2)c(Nc2ccccc2)c1)N1CCC(N2CCCC2)CC1
3. Cc1ccc(C(=O)Nc2cccc(C(F)(F)F)c2)cc1Nc1nc(-c2cccnc2)nc2c1cnn2C
4. CNC[C@H](O)c1cccc(O)c1 [PHENYLEPHRINE]
5. COc1cc(N2CCN(C)CC2)ccc1Nc1ncc2c(n1)N(C)c1ccccc1C(=O)N2C
6. CN1CCN(c2cnc3c(C4CCN(C(=O)c5ccc(OC(F)(F)F)cc5N)CC4)ncnc3c2)CC1 [BAY-885]
7. CC(C)(Sc1ccc(CCN(CCCCC2CCCCC2)C(=O)NC2CCCCC2)cc1)C(=O)O [GW7647]

1. 0
2. 1
3. 0
4. 1
5. 1
6. 0
7. 1

Can you give me Growth Rate for all of these, one by one?
1. NC(=O)c1cccc(-c2cc(Nc3ccc(OC(F)(F)F)cc3)ncn2)c1
2. O=C(Cc1ccc(-c2ccc(OCCN3CCOCC3)cc2)cn1)NCc1ccccc1 [TIRBANIBULIN]
3. CC1(C)C(=O)C(C)(C)c2cc(C(=O)Nc3ccc(C(=O)O)cc3)ccc21
4. Cc1ccc(-c2ccc3c(ccc4sc5c(c43)NC[C@@H](C)NC5=O)n2)cn1
5. CNC(=O)c1ccc(Nc2nc(OC3CCCC3)c3c(-c4ccc5nc(C)oc5c4)c[nH]c3n2)c(OC)c1

1: 0; 2: 0; 3: 0; 4: 1; 5: 1

###

test system: HEK-293T; experiment: Multiplex assay against HEK293T; format: toxicity, cell-based; settings: human, 12 h, 1 µM, compound concentration 1 uM, replicate 2
Record true whenever Population Hoechst High Intensity Objects (%) is at 3% or higher; record false when lower.

Previously resolved entries follow.
                              smiles_record  group
0  COc1ccc(-c2ccc3c(N4CCOCC4)nc(N4C[C@@H](C)O[C@@H](C)C4)nc3n2)cc1CO  false
1  CN[C@@H]1C[C@H]2O[C@@](C)([C@@H]1OC)n1c3ccccc3c3c4c(c5c6ccccc6n2c5c31)C(=O)NC4   true
2  O=C(Nc1ccc(-c2ccnc(Nc3ccc(N4CCOCC4)cc3)n2)cc1)[C@@H]1CCCN1   true
3  O=C(Cc1ccc(-c2ccc(OCCN3CCOCC3)cc2)cn1)NCc1ccccc1  false
4  O=C1NC(=O)C(c2cnc3ccccn23)=C1c1cn2c3c(cc(F)cc13)CN(C(=O)N1CCCCC1)CC2   true

Pending compound:
Could you verify whether the entry "Cc1ccc2nc(NCCN)c3ncc(C)n3c2c1.O=C(O)C(F)(F)F.O=C(O)C(F)(F)F" shows Population Hoechst High Intensity Objects (%) of no less than 3%? false
